biological target: Serine protease 1 (Bos taurus, UniProt P00760); experiment: Binding affinity against bovine trypsin
Sequence (P00760 whole entry): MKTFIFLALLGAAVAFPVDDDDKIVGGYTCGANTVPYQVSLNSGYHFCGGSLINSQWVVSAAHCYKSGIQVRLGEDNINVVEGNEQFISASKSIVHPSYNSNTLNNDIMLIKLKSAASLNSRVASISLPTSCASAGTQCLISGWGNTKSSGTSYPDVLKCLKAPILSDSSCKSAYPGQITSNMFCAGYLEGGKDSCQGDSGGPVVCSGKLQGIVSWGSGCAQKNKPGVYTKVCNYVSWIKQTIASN
MEASUREMENT NAME: log10 of Ki (log10 of the value in nM)
Hey, these are logged values: log10 of Ki, nM being the unit before logging.

Some entries whose results are on file:
CN[C@H](Cc1ccccc1)C(=O)N1CCC[C@H]1C(=O)N[C@@H](Cc1ccccc1)C(=O)c1nc2ccccc2s1 | 4.08
CN[C@H](Cc1c(F)c(F)c(F)c(F)c1F)C(=O)N1CCC[C@H]1C(=O)NC(CCCN=C(N)N)C(=O)c1nc2ccccc2s1 (stereo not given in full) | 0.97

Could I get log10 of Ki for every one of these entries?
1. CN[C@H](Cc1ccccc1)C(=O)N[C@H](C(=O)NC(CCCN=C(N)N)C(=O)c1nc2ccccc2s1)C(C)C (stereo not given in full)
2. CNC(C(=O)N1CCC[C@H]1C(=O)NC(CCCN=C(N)N)C(=O)c1nc2ccccc2s1)(c1ccccc1)c1ccccc1 (stereo not given in full)
3. CN[C@H](Cc1ccccc1)C(=O)N1CCC[C@H]1C(=O)N[C@@H](CCCNC(=N)N)C(=O)c1nccn1C
4. CN[C@H](Cc1ccccc1)C(=O)N1CCC[C@H]1C(=O)NC(CCCN=C(N)N)C(=O)c1nc2ccc(C(N)=O)cc2s1 (stereo not given in full)
5. CCS(=O)(=O)N[C@H](Cc1ccccc1)C(=O)N1CCC[C@H]1C(=O)NC(C(=O)c1nc2ccccc2s1)C1CCC(N)CC1 (stereo not given in full)

0.18
0.26
3.76
-0.52
1.94

Field: log10 of Ki. Fill in for each record below.
1. CN[C@H](Cc1ccccc1)C(=O)N1CCC[C@H]1C(=O)N[C@H](Cc1cccc(C(=N)N)c1)C(=O)c1nc2ccccc2s1
2. CN[C@H](Cc1ccccc1)C(=O)N1CCC[C@H]1C(=O)N[C@H](C=O)CCCNC(=N)N (stereo in doubt; 1b)

1: 3.41; 2: 0.96

Batch of 2 compounds: report log10 of Ki for each.
1. CN[C@H](Cc1ccccc1)C(=O)N1CCC[C@H]1C(=O)NC(CCCN=C(N)N)C(=O)c1nc2ccc(OC)cc2s1 (stereo not given in full)
2. CN[C@H](Cc1ccccc1)C(=O)N1CCC[C@H]1C(=O)N[C@@H](C[C@H]1CCCN(C(=N)N)C1)C(=O)c1nc2ccccc2s1

1. 0.30
2. 2.32

====

biological target: Prothrombin (Homo sapiens); assay: Binding affinity against human alpha thrombin; SB = Slow-binding
MEASUREMENT NAME: pKi
One number for each entry, as −log10 of the molar value.

Which pKi is listed for CN[C@H](Cc1ccccc1)C(=O)N1CCC[C@H]1C(=O)N[C@@](C)(CCCN=C(N)N)C(=O)c1nc2ccccc2s1 ?
6.37

====

molecular target: UniProt P00760; assay: Inhibitory concentration against bovine trypsin; Not determined
MEASUREMENT NAME: IC50 (µM)
Give bare numbers, in µM.

Value lookup for IC50; key = CN[C@H](Cc1ccccc1)C(=O)N1CCC[C@H]1C(=O)N[C@H](CCCN=C(N)N)Cc1nc2ccccc2s1
30

====

What Ki was measured for each of the following?
target: Prothrombin (Homo sapiens, UniProt P00734); experiment: Binding affinity determined against human alpha thrombin
One number for each entry, in nM.

Examples from the recorded data:
CN[C@H](Cc1ccccc1)C(=O)N1CCC[C@H]1C(=O)NC(CCCN=C(N)N)C(=O)c1nc2ccc3ccccc3c2s1 (some centres not stated) | 0.58
CN[C@H](Cc1ccccc1)C(=O)N1CCC[C@H]1C(=O)N[C@H](Cc1cccc(C(=N)N)c1)C(=O)c1nc2ccccc2s1 | 15
CN[C@H](Cc1ccccc1)C(=O)N1CCC[C@H]1C(=O)N[C@H](C=O)CCCN=C(N)N (stereo in doubt) | 18
CN[C@H](Cc1ccccc1)C(=O)N1CCC[C@H]1C(=O)NC(CCCN=C(N)N)C(=O)c1nc2ccccc2c(=O)[nH]1 (some centres not stated) | 15
CN[C@H](Cc1ccccc1)C(=O)N1CCC[C@H]1C(=O)N[C@@H](Cc1ccc(C(=N)N)cc1)C(=O)c1nc2ccccc2s1 | 1400
CCCC(CCC)C(=O)N[C@@H](CC(=O)OC)C(=O)N1CCC[C@H]1C(=O)N[C@@H](CCCNC(=N)N)C(=O)c1nc2ccccc2s1 | 1.4

Endpoint output: Ki of CN[C@H](Cc1ccccc1)C(=O)N1CCC[C@H]1C(=O)N(C)[C@@H](CCCN=C(N)N)C(=O)c1nc2ccccc2s1 . Value?
2100

Data provenance: ChEMBL document CHEMBL1142732
